Test system: BT-549 breast
Test name: NCI-60 one-dose screen, 48 h
Measurement context: 10 µM unless noted
Compounds without any hit were thinned out: in the full panel of roughly 83,000, 20% have a hit. Calls of active or inactive are those of the source. The calls were made as follows: active = growth percent below 10; inactive = the rest.
Hello, when you answer, please use one of the following outcomes: active, inactive

Examples with answers:
O=C1CN(CCN2CC(=O)N(Cc3ccccc3)C(=O)C2)CC(=O)N1Cc1ccccc1 = inactive
COc1ccc(S(=O)(=O)n2c3ccccc3n3ncc(-c4nnc(C)o4)c23)cc1 = inactive
COc1ccc2nc(NC(=O)c3cccnc3Nc3ccc(S(N)(=O)=O)cc3)sc2c1 = inactive
NCCOc1ncccc1/C=C1\C2C=CC=CC2C2C=CC(F)=CC12 (stereo unspecified) = inactive
CCc1cccc2c1S/C(=C/c1ccc(OC)cc1)C2=O = inactive

IN: Given O=C(Nc1ccc(F)cc1F)c1cc(F)ccc1O , state the outcome it received in this test.
OUT: active

====

System: OVCAR-5 ovarian
Test name: NCI-60 one-dose screen, 48 h (100 = growth as untreated, 0 = no growth, -100 = all killed)
Measurement context: 10 µM unless noted
Compounds without any hit were thinned out: in the full panel of roughly 83,000, 20% have a hit.
Measurement name: growth (%)
Write down the numeric answer in % and omit the unit.

Cc1cccc2c3c(sc12)C(c1ccc(Cl)cc1)C(C#N)=C(/N=C/c1ccc(Cl)cc1)O3 (stereo not given) = 24.6

Attention now turns to another entry.
IN: Return the recorded growth value; entry: C=C1CC[C@@]2(C#N)[C@H]3[C@H](CC[C@@H]2C)[C@@H](C)C[C@@H](CC(C)(C)C#N)[C@H]13
OUT: 48.5

====

Tested on: SK-OV-3 ovarian
Test name: NCI-60 one-dose screen, 48 h (100 = growth as untreated, 0 = no growth, -100 = all killed)
Measurement context: 10 µM unless noted
The panel holds about 83,000 compounds, 20% with a hit somewhere; the sample as a whole holds those more often.
Binary call on growth: Condition met from 60% upward, Condition not met beneath that.

COc1ccc2sc3c(NCCO)nc4ccccc4c3c(=O)c2c1 = Condition met
CS(=O)(=O)N(c1cc(-c2ccc3ncnc(Nc4ccc(F)c(Cl)c4)c3c2)cnc1Cl)S(C)(=O)=O = Condition not met
CCOC(=O)C1=C(N)Oc2c(sc3c(C)cccc23)C1c1ccc(OC)cc1 (centres undefined) = Condition not met
COc1cc(-c2nc3sccn3c2-c2ccnc(NCCCNS(=O)(=O)c3ccc(F)cc3)n2)ccc1F = Condition met
COc1ccc(/C=N/Nc2cc(=O)[nH]c3ccc(Cl)cc23)cc1 = Condition met
CNc1nc2c(s1)C(c1cccc(F)c1)CC(=O)N2 (centres undefined) = Condition met
C[C@]12CC[C@@H]3c4cc(OC(F)F)c(OS(N)(=O)=O)cc4CC[C@H]3[C@@H]1CC[C@@H]2OS(N)(=O)=O = Condition not met
COc1ccc(C2=Nn3c(nnc3-c3cc(Cl)cc(Cl)c3Cl)SC2)cc1 = Condition not met
CCCCCCn1c(-c2ccc(C(=O)O/N=C(\N)c3ccc4ccccc4c3)cc2)nc(-c2ccccc2)c1-c1ccccc1 = Condition met
COC(=O)c1ccc2[nH]c(O)c(C(=Nc3ccc(N(C)C(=O)CN4CCN(C)CC4)cc3)c3ccccc3)c2c1 = Condition not met

IN: Record CC/C=C\C[C@@H]1C/C=C2/C(=O)C=C[C@H]2C/C=C\CCCC(=O)O1 ; criterion: growth no lower than 60%. Met?
OUT: Condition not met

IN: Record O=C(Nc1nc2ccc(F)cc2s1)c1cccnc1Nc1ccc(Cl)cc1Cl ; criterion: growth no lower than 60%. Met?
OUT: Condition not met

IN: Record Nc1ccc(Sc2ccc([N+](=O)[O-])c3nonc23)cc1 ; criterion: growth no lower than 60%. Met?
OUT: Condition met
